- Tested on: OVCAR-3 ovarian
- protocol-text: NCI tumour cell line growth inhibition, 48 h
For each of the molecules below, state its TGI.

Entry under review: O=C1NC2CCC(C2)C1c1ccccc1 (configuration not stated) . Reported TGI?
> 100 µM

Value lookup for TGI; key = COC(=O)C12C3C4C5C3(C#N)C1C5(C(=O)OC)C42C(=O)N(C(C)C)C(C)C (configuration not stated)
> 100 µM

So what does the record say about TGI for `[N-]=[NH+]CC(=O)OC(COCc1ccccc1)COCc1ccccc1` ?
> 100 µM

Which TGI is listed for `CCC(=O)NC(Nc1ccc(O)cc1)(C(F)(F)F)C(F)(F)F` ?
> 100 µM

Quick one: TGI for CC(C)C1CCC/C=C/C=C/C=C/C=C/C(OC2OC(C)C(O)C(N)C2O)CC2OC(O)(CC(O)CC(O)C(O)CCC(=O)O1)CC(O)C2C(=O)O (configuration not stated) ?
> 52.5 µM

Given the molecule `COC(=O)C1=Cc2cc(OC)c(O)cc2[C@@H](c2ccc(O)c(OC)c2)[C@@H]1C(=O)OC` , what is its reported TGI?
> 100 µM

# lookup: TGI of O=C([O][Hg][CH2]C1COCC([CH2][Hg][O]C(=O)c2ccccc2)O1)c1ccccc1 (configuration not stated)
2.93 µM

If you can, please state the reported TGI value of `O=C1c2ccccc2C2=Nc3ccncc3CN12` .
> 100 µM

Field request: TGI | item: `Cc1cccc(C)c1NC(=S)NC=C(C(N)=O)C(N)=O`
> 100 µM

Consider the molecule `CC[Si](CC)(CC)OC[C@]1([C@@H]2COC(C)(C)O2)CC=CC(=O)O1` and give its measured TGI.
> 100 µM

Given the entry `CC1=NN(c2nc(N)nc(CSCc3nc(N)nc(N(C)C)n3)n2)C(C)(C)C1` , report its measured TGI.
> 100 µM

Quick one: TGI for `Cc1cc(I)cc(CN(C)CCN2CCCC2)c1O` ?
> 100 µM

What value of TGI has been reported for the following molecule? `c1cn2cc(-c3ccc4ncn(C5CCCCC5)c4c3)nc(-c3ccc4c(c3)ncn4C3CCCCC3)c2n1`
3.36 µM

If you can, please state the reported TGI value of `C=CCN1C=CC(=O)[C@H](O[Si](C)(C)C(C)(C)C)[C@@H]1/C=C/c1ccccc1` .
27.8 µM

May I ask what TGI has been recorded for `O=c1c2cc([N+](=O)[O-])ccc2n2n1Cc1ccccc1C2` ?
> 100 µM

// lookup TGI for `c1ccc2c(c1)-c1ccccc1C2N1CC2CCC(CC2)C1`
40.5 µM

Can you look up the measured TGI of `CCOc1ccc(Nc2nc(-c3ccc4c(c3)NC(=O)CO4)cs2)cc1` for me?
> 100 µM

Which value of TGI has been reported for `O=C1c2c(ccc3c2CCC3)CC12Cc1cc3c(cc1C2)CCC3` in the records?
> 100 µM

Given the molecule `COc1ccc(/C=C2\CCCCCC2=O)cc1` , what is its reported TGI?
> 100 µM

Using the record for `[O-][n+]1onc(-c2ccccc2)c1CN1CCOCC1` , report its TGI.
> 100 µM

Any idea what TGI was measured for `O=C1c2ccccc2-c2ccc(N=Nc3c(O)ccc4ccccc34)cc21` ?
> 100 µM

Dear colleague, I am looking for the recorded TGI of the following molecule: `CCN(CC)CCNC(=O)c1nn(C)c(=S)[nH]c1=S`
> 100 µM

* * *

Kindly state GI50 for each of the entries shown.
- Test system: SF-268 CNS
- protocol-text: NCI tumour cell line growth inhibition, 48 h

Reported GI50, molecule CCCCCCCCCCCCC(O)C1CCC(C(O)CCCCCCC(O)CCCCCCCC2=CC(C)OC2=O)O1 (stereo not drawn) : ____
41.2 µM

Need GI50, item `Cc1cc(I)cc(CN(C)CCN2CCCC2)c1O`
32.4 µM

Which GI50 reading was recorded for the molecule `COc1ccc(-c2ccc(/C=N/n3c(COc4ccc(Cl)cc4Cl)nn(CN4CCN(C)CC4)c3=S)o2)c([N+](=O)[O-])c1` ?
24.8 µM

* * *

- Test system: A498 renal
- protocol-text: NCI tumour cell line growth inhibition, 48 h
Consider the following compounds; for each one, report its TGI.

Which TGI value belongs to `Cn1c(Nc2ccccc2)c(C=Nc2ccccc2)c(=O)n(C)c1=O` ?
> 100 µM

Look up TGI: COc1ccc(C(=O)OC2C=COC(C)C2OC(=O)c2ccc(OC)cc2)cc1 (stereo unspecified)
> 100 µM

Which measured TGI value corresponds to `Cc1nc2cc(N)c(F)cc2[nH]1` ?
> 100 µM

So what does the record say about TGI for `COC(=O)c1ccc(N=NN(C)COc2ccc([N+](=O)[O-])cc2)cc1` ?
> 100 µM

Please report the recorded TGI for `Cc1ccc(-c2nc(N)nc3c2nnn3Cc2cccc(CO[C@H]3CCOC3)n2)o1` .
> 100 µM

# get_value(readout='TGI', item= `COc1ccc(C2=C(c3ccc(OC)c(OC)c3)C(=O)OC2)cc1` )
42.3 µM

* * *

- Test system: HOP-92 NSCLC
- protocol-text: NCI tumour cell line growth inhibition, 48 h; in the data active means GI50 below about 0.43 µM; inactive means the rest
Where a SMILES comes first, the peptide text is derived from it. [ ]: non-standard residue; d: D form. The star is where a group is joined. ξ: configuration not given here. NMeN = CN[C@@H](CC(N)=O)C(=O)O; NMeV = CN[C@H](C(=O)O)C(C)C; ξNMeV = CNC(C(=O)O)C(C)C; Boc = CC(C)(C)OC(=O)*; ξNMeA = CNC(C)C(=O)O
A correct response names exactly one class from 1 (active), 0 (inactive)

# outcome recorded in this test, key = COC(=O)C(C)N(C)C(=O)[C@H](CC(N)=O)N(C)C(=O)[C@@H]1CCCN1C(=O)[C@H](C(C)C)N(C)C(=O)C(C(C)C)N(C)C(=O)[C@@H](NC(=O)OC(C)(C)C)C(C)C (some centres undefined) (Boc-V[ξNMeV][NMeV]P[NMeN][ξNMeA]-OMe)
0

Dear colleague, could you share the recorded outcome for `Cc1cc(I)cc(CN(C)CCN2CCCC2)c1O` when you have a moment?
0

Assay result, entry `COc1cccc(-c2nc3sccn3c2-c2ccnc(NCCNS(=O)(=O)c3ccccc3)c2)c1` — outcome?
0

In this assay, the call recorded for `COc1ccc(CNc2c3ccccc3nc3ccc(OC)cc23)cc1` was what?
0

State the result this test recorded for `COc1cc2cc(C(=O)Nc3cc(N)c4ccccc4c3CCCl)[nH]c2c(OC)c1OC` .
1

Lab log entry: `CC/C(=C(/CC)c1ccc(O)cc1)c1ccc([O-])cc1.CC/C(=C(/CC)c1ccc(O)cc1)c1ccc([O-])cc1.O=C([CH-]C(=O)c1ccccc1)c1ccccc1.O=C([CH-]C(=O)c1ccccc1)c1ccccc1.[Ti+4]` — outcome as called in the assay?
0

Each compound tested received a call. Report the one for `NC(=O)c1ccc2c(-c3ccnc(NCCCO)n3)c(-c3ccc(F)cc3)nn2c1` .
0

Test call, this compound: `C=CCN1C=CC(=O)[C@H](O[Si](C)(C)C(C)(C)C)[C@@H]1/C=C/c1ccccc1`
0

What did the test return for `COc1ccc(C2=C(c3ccc(OC)c(OC)c3)C(=O)OC2)cc1` ?
0

Please state the recorded outcome for this compound: `O=C(Nc1ccc(F)cc1F)c1cc(Br)ccc1O`
0

Recorded test outcome, item `C=C[C@H]1CCC/C=C/[C@@H]2C[C@H](O)C[C@H]2[C@H](O)/C=C/C(=O)O1`
1

Write down the call the test reported for this compound. Item: `Cc1ccc(-c2nc(N)nc3c2nnn3Cc2cccc(CO[C@H]3CCOC3)n2)o1`
0

Tell me the assay call for C=CCN(CC=C)C(=O)c1cc(C)nc2c1c(=O)n(-c1ccccc1)c(=O)n2CC(O)CN1CCN(c2ncccn2)CC1 (centres undefined) please.
0

Recorded test outcome, item `c1cc(OCCN2CCCCC2)ccc1CNc1ccc2nc(CCC3CCCCC3)[nH]c2c1`
0

* * *

- Tested on: DMS 273 small cell lung
- protocol-text: NCI tumour cell line growth inhibition, 48 h
reported-property: TGI

Fill in the blank: the reported TGI of `Cc1ccc(/C=C/C(=O)c2sc(-c3cccnc3)nc2C)cc1` is ____.
> 100 µM

// query TGI value for entry `CC[O-].CC[O-].O=C1C(c2ccccc2)=C([O-])c2ccccc21.O=C1C(c2ccccc2)=C([O-])c2ccccc21.[Ti+4]`
> 100 µM

Request the reported TGI associated with `CC/C(=C(/CC)c1ccc(O)cc1)c1ccc([O-])cc1.CC/C(=C(/CC)c1ccc(O)cc1)c1ccc([O-])cc1.O=C([CH-]C(=O)c1ccccc1)c1ccccc1.O=C([CH-]C(=O)c1ccccc1)c1ccccc1.[Ti+4]`
> 100 µM

Item CCCC(C)C[C@@H](C)CC(C)/C=C(\C)c1oc(=O)c(C)c(O)c1C (stereo not given in full) (tested in a mixture with another compound) has what recorded TGI?
32.4 µM

What value of measured TGI is listed for `CCCn1c(SCC)c2cc3cc4ccccc4cc3cc2c1-c1nc(F)nc(F)n1` ?
> 100 µM
